assay: in vitro; details: human, hela cells, % viability
endpoint-name: viability at 28.5 h, 10 µM (%)
One number for each entry, in %.

Worked set:
If you can, please state the reported viability at 28.5 h, 10 µM value of N#Cc1c(NC(=O)CN2CCc3ccccc3C2)sc2c1CCCC2 . 105

If you can, please state the reported viability at 28.5 h, 10 µM value of Cc1ccc(C(C)(C)CC(C)NCc2ccc(Cl)cc2)o1 (stereo not shown) . 95.8

If you can, please state the reported viability at 28.5 h, 10 µM value of CCCC12CN3CC(CCC)(CN(C1)C3C(O)C(O)C(O)CO)C2=O (stereo not shown) . 88.3

Working through the 7 molecules below one at a time, give viability at 28.5 h, 10 µM for each.
1. COc1ccc(/C=C(\NC(C)=O)C(=O)N2CCNCC2)cc1
2. Cn1c(CN2CCN(C3CCCC3)C(=O)C2)nc2ccccc21
3. CS(=O)(=O)N1CC2(CCN(Cc3ncc[nH]3)CC2)c2ccccc21
4. CN1C(C)(C)CC(NC(=O)c2[nH]cnc2C(=O)O)CC1(C)C
5. O=C(Nc1ccc(-c2nc3ccc(-c4nc5ccc(NC(=O)c6cccc7ccccc67)cc5[nH]4)cc3[nH]2)cc1)c1cccc2ccccc12
6. COc1cc(/C=C/C(=O)NCc2ccccn2)cc(OC)c1OC
7. C/C=C/c1ccc(OCCCn2nnc3ccccc32)c(OC)c1

1: 90.5; 2: 100; 3: 98.8; 4: 87.5; 5: 94.4; 6: 91.5; 7: 86

Working through the 5 molecules below one at a time, give viability at 28.5 h, 10 µM for each.
1. COc1ccc(C)cc1S(=O)(=O)NCCO
2. Cc1nc(-c2cccnc2)[nH]c(=O)c1CC(=O)N1CCN(C)CC1C (stereo not shown)
3. COc1ccc([N+](=O)[O-])cc1-c1ccc(/C=N/NC(=O)Cn2nnnc2N)o1
4. O=C(NC(=S)Nc1ccc2[nH]c(=O)[nH]c2c1)c1ccc(F)cc1
5. O=C(c1ccc(-c2ccoc2)nc1)N1CCCC1

[98.4, 100, 92.2, 89.3, 84.6]

Working through the 4 molecules below one at a time, give viability at 28.5 h, 10 µM for each.
1. CCSCCN1CCC(Oc2nccnc2OCc2ccc(Br)cc2F)CC1
2. O=C(NC(NCc1ccco1)C(Cl)(Cl)Cl)c1ccc(Br)cc1 (stereo not shown)
3. O=C(Nc1ccccc1-n1ccnc1)c1ncoc1-c1ccc(F)cc1
4. O=S1(=O)C=C(SCCN2CCCCC2)c2ccccc21

98.7
89
94.1
92.6

====

So I've got a bunch of compounds here, and I need their viability at 28.5 h, 10 µM values.
assay: in vitro; settings: human, hela cells, % viability
Answers are plain numbers, in %.

Worked set:
If you can, please state the reported viability at 28.5 h, 10 µM value of COc1ccccc1-c1nccnc1NCC(C)O (centres unmarked) [CBK037637] . 90.4

If you can, please state the reported viability at 28.5 h, 10 µM value of CC(=O)NC(c1ccccn1)C1CCCN(C(=O)C(C)(C)C)C1 (centres unmarked) [CBK285101] . 91.6

If you can, please state the reported viability at 28.5 h, 10 µM value of CCn1c(=O)n(CC(=O)N(C(C)C)C(C)C)c2cccnc21 [CBK283943] . 100

If you can, please state the reported viability at 28.5 h, 10 µM value of O=C(O)C1CCCN(C(=O)CCc2c[nH]c3ccccc23)C1 (centres unmarked) [CBK286925] . 88.6

If you can, please state the reported viability at 28.5 h, 10 µM value of Nc1ncc(CCCN2CCOCC2)c(N)n1 [CBK025981] . 125

Working through the 5 compounds below one at a time, give viability at 28.5 h, 10 µM for each.
1. CCCCOc1nccnc1-c1ccsc1 [CBK106778]
2. Cc1cccn2cc(CCNC(=O)CN3Cc4ccccc4C3)nc12 [CBK305166]
3. Cc1nc(C(Cc2ccsc2)NC(=O)C2CCC(=O)N2)sc1C (centres unmarked) [CBK284780]
4. Cc1noc(C)c1C(=O)N1CCCCCC1c1ccn(C)n1 (centres unmarked) [CBK284917]
5. O=C(N[C@H]1C2CCCCC2[C@@H]1c1ccccc1)c1cncnc1 (some centres unmarked) [CBK282949]

1: 101; 2: 101; 3: 101; 4: 90.8; 5: 94.3

Working through the 8 compounds below one at a time, give viability at 28.5 h, 10 µM for each.
1. O=C(c1ccc2c(c1)C(=O)N(N1C(=O)c3ccccc3C1=O)C2=O)c1ccc2c(c1)C(=O)N(N1C(=O)c3ccccc3C1=O)C2=O [CBK261182]
2. COC(=O)Cc1nc(NS(=O)(=O)c2ccc(Oc3cccc(Cl)c3C#N)cc2)sc1C [CBK000744]
3. COc1ccc(C2NC(C(=O)O)CS2)c(OC)c1 (centres unmarked) [CBK260908]
4. COCCn1c(CN2CCOCC2)nc2c1c(=O)[nH]c(=O)n2C [CBK269890]
5. Cc1ccc2nsnc2c1NC(=O)COc1ccccc1[N+](=O)[O-] [CBK263779]
6. CC(=O)Nc1ccc(S(=O)(=O)Nc2ccc(-c3nc4cc(C(=O)c5ccccc5)ccc4[nH]3)cc2)cc1 [CBK267819]
7. COC(=O)CNC(=O)CNS(=O)(=O)c1ccc(C(C)=O)cc1 [CBK044117]
8. CN(C)c1cccc(Oc2nc3c(c(=O)n(C)c(=O)n3C)n2C)c1 [CBK270109]

96.4
98.3
99.2
100
92.7
99.2
89.1
97.8

Working through the 2 compounds below one at a time, give viability at 28.5 h, 10 µM for each.
1. COc1cc(CNC2CCCc3c2cnn3C)cc(OC)c1 (centres unmarked) [CBK304306C]
2. COCc1ccc(C(=O)N2CCCC(c3cc4ncccc4[nH]3)C2)o1 (centres unmarked) [CBK282106]

[82.4, 87]

====

experiment: in vitro; settings: human, hela cells, % viability
So I've got a bunch of compounds here, and I need their viability at 28.5 h, 10 µM values.
Give bare numbers, in %.

Worked set:
If you can, please state the reported viability at 28.5 h, 10 µM value of C=C(C)CN1CCN(C(=O)c2ccnc3ccc(Cl)cc23)CC1 . 111

If you can, please state the reported viability at 28.5 h, 10 µM value of O=C(CN1CCN(c2ccccn2)CC1)N1c2ccccc2Sc2ccc(C(F)(F)F)cc21 [CBK268835G] . 98.8

If you can, please state the reported viability at 28.5 h, 10 µM value of Cc1ccc(C2(C(=O)N3CCC(O)(c4ccccn4)CC3)CC2)cc1 . 96.4

If you can, please state the reported viability at 28.5 h, 10 µM value of CC(CC(=O)C1C(C)C=CCC1(C)C)NNC(=O)c1ccccc1O (stereo not shown) . 91.6

If you can, please state the reported viability at 28.5 h, 10 µM value of CN(C)c1ccc(NC(=O)C(Cc2ccccc2)N2C(=O)c3ccccc3C2=O)cc1 (stereo not shown) . 99.6

Working through the 7 compounds below one at a time, give viability at 28.5 h, 10 µM for each.
1. Cn1c(=O)c2c(ncn2Cc2noc(-c3ccoc3)n2)n(C)c1=O
2. Cc1noc(C)c1S(=O)(=O)n1c(=O)n(Cc2ccc(S(C)(=O)=O)cc2)c2ccccc21
3. COc1cc(C2c3c(oc4ccc(Cl)cc4c3=O)C(=O)N2CC2CCCO2)ccc1OCc1ccccc1 (stereo not shown)
4. Nc1cc(N)nc(SCC(=O)Nc2nonc2N)n1
5. COc1cc(CN2CCC(N3CCCCCC3)CC2)ccc1OCc1ccccc1 [CBK264709G]
6. O=C(NCCN1CCOCC1)NC(=O)c1ccc(Cl)cc1
7. CC(=O)NC[C@@H]1C=C(C)[C@H](CC(=O)Nc2ccccn2)C[C@H]1C(C)C

1. 86.3
2. 93.4
3. 89.5
4. 89.1
5. 90.6
6. 88.2
7. 92.3

Working through the 4 compounds below one at a time, give viability at 28.5 h, 10 µM for each.
1. CN1C(=O)c2ccccc2C(=O)[C@@]2(C)CN(CC(C)(C)C)C[C@@H]12
2. COc1ccccc1C(CNC(=O)Nc1cc(C)on1)N1CCCC1 (stereo not shown)
3. O=C(CC1S/C(=N/N=C/c2ccc(-c3ccc(Br)cc3)o2)NC1=O)Nc1ccccc1 (stereo not shown)
4. Cn1cccc1CN1C[C@H]2CC[C@]3(NC(=O)c4ccccc4N3)[C@H]2C1

1: 93.8; 2: 94.5; 3: 106; 4: 97.7

Working through the 4 compounds below one at a time, give viability at 28.5 h, 10 µM for each.
1. CCOC(=O)C1CCN(S(=O)(=O)c2ccccc2)CC1
2. C[C@H](Nc1cncc(-c2ccc3c(c2)OCO3)n1)c1ccccc1
3. CCCn1ncc(CN2CCCC(c3cc4cccnc4[nH]3)C2)c1C (stereo not shown)
4. Cc1cc(C)c2sc(NC(=O)c3ccccc3)nc2c1

[107, 90.3, 95.1, 104]

Working through the 5 compounds below one at a time, give viability at 28.5 h, 10 µM for each.
1. C/C(=N/NC(=O)C[N+](C)(C)C)c1nn(-c2ccc(Cl)cc2)nc1C [CBK008258C]
2. CC1(c2ccccc2)NC(NC2CCCCC2)=NC1=O (stereo not shown)
3. COc1ncc(-c2nccnc2OCc2cccs2)c(OC)n1
4. O=C(Nc1ccccc1C(=O)NCc1ccccc1)c1cccc(F)c1
5. NS(=O)(=O)c1ccc(CCNC(=O)/C=C/c2ccc([N+](=O)[O-])cc2)cc1

100
97.3
102
88.9
110

Working through the 5 compounds below one at a time, give viability at 28.5 h, 10 µM for each.
1. COc1cccc(Nc2cc(-c3ccc(N4CCOCC4)cc3)ncn2)c1
2. CC(C)n1cccc1CN[C@@H]1CCC(=O)N[C@H]1c1cccc(F)c1
3. COC(=O)c1ccc2c(=O)n(CCc3ccc(S(N)(=O)=O)cc3)c(=S)[nH]c2c1
4. O=C1CC(c2ccco2)Cc2c1cnn2-c1nc2ccccc2s1 (stereo not shown)
5. O=C(CSc1nc2ccccc2o1)N1c2ccccc2Sc2ccc(C(F)(F)F)cc21

1: 68.7; 2: 91.1; 3: 91.2; 4: 81.4; 5: 91.1

Working through the 3 compounds below one at a time, give viability at 28.5 h, 10 µM for each.
1. O=C(/C=C/c1cn(-c2ccccc2)nc1-c1cc2ccccc2oc1=O)NCc1ccccc1
2. CN(C)c1ccc(-c2nccnc2NS(=O)(=O)c2ccc(C(F)(F)F)cc2)cc1
3. c1ccc(OCc2nc3c4c(-c5ccccc5)c(-c5ccccc5)oc4ncn3n2)cc1

100
95.1
94.6

Working through the 4 compounds below one at a time, give viability at 28.5 h, 10 µM for each.
1. CCOC(=O)Cn1c(CCC(=O)O)ccc1-c1ccc(F)cc1
2. Cc1ccc(S(=O)(=O)N(C)CCCC#N)cc1
3. CC(c1ccccc1)C(CC(=O)O)C(=O)NCc1ccccc1 (stereo not shown)
4. Clc1ccc(COc2cc(N3CCCN(Cc4ccccc4-c4ccccc4)CC3)ncn2)cc1Cl [CBK083781T]

[97.8, 106, 101, 98.4]
